# target: EIF2AK2 (PKR) catalytic domain (Homo sapiens, UniProt P19525)
# Construct: Recombinant human EIF2AK2 (PKR) catalytic domain (amino acids 252-551)
# Sequence (P19525 252-551): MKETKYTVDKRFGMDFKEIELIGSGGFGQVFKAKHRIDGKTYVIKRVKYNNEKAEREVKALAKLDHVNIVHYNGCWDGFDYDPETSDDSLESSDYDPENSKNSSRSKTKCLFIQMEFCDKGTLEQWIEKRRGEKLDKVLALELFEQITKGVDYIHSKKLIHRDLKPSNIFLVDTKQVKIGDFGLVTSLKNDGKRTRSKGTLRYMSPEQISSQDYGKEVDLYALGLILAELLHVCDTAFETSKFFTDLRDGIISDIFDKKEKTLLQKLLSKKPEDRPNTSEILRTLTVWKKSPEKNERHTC
# experiment-summary: TR-FRET kinase assay, PKR
# condition-notes: 2.5 μM ATP, 45 min; read-out: Enzyme IC50 PKR
# Excerpt: Recombinant human EIF2AK2 (PKR) catalytic domain (amino acids 252-551), EIF2AK3 (PERK) catalytic domain (amino acids 536-1116), GFP-eIF2α substrate, and Terbium-labelled phospho-eIF2a antibody is obtained (Invitrogen, Carlsbad, CA). Express and purify HIS-SUMO-GCN2 catalytic domain (amino acids 584-1019) from E. coli. […] Monitor the resulting fluorescence in an EnVison® Multilabel reader (PerkinElmer, Waltham, MA). […]
pIC50: −log10 of the molar value.
Form field: pIC50 (one value per entry).

substance-smiles | pIC50
CNC(=O)c1nc(-c2ccc(NC(=O)[C@H](O)c3cc(F)cc(F)c3)cc2C)cnc1N | < 4.70

Could you now consider this next molecule?
Input: // lookup pIC50 | system=EIF2AK2 (PKR) catalytic domain (Homo sapiens, UniProt P19525) | key= Cc1cc(NC(=O)[C@H](O)c2cc(F)cc(F)c2)ccc1-c1cnc(N)c(C(=O)NC(C)C)c1
Output: < 4.70
